Listed next: entries and their corresponding Ratio vs. GLP-1R.
System Tested: T1, human glucose-dependent insulinotropic polypeptide receptor (GIPR), expressed on CHO-K1 cells (human, UniProt P48546 22-466)
T1 sequence (looked up): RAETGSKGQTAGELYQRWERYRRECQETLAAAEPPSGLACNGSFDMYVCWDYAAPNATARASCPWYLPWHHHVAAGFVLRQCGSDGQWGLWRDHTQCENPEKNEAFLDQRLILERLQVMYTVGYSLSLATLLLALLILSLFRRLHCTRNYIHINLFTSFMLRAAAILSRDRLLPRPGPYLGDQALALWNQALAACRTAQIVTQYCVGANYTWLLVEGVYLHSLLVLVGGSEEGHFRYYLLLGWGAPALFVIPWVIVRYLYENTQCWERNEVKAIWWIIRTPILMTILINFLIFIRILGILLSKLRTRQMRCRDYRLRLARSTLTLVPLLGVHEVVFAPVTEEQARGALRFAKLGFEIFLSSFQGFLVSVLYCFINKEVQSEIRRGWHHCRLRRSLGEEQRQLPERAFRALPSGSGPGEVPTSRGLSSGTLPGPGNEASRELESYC
Assay Overview: cell-based or functional assay
Numbered stars: 1 amine (or outer) side, 2 acyl side, 3 side chain; on linkers, the order of the positions; unused ones are H or OH. Square brackets hold non-standard residues; d marks the D form. Primed or numbered codes have the meaning given here. Side chains are listed from the residue outwards. Ends that are not written are not given here. * marks the point of attachment. C18″ = C18 fatty acid moiety (of 2OEG-γGlu-C18, K*); γGlu = O=C(O)[C@H](CCC(=O)[*:2])N[*:1]; AEEA = NCCOCCOCC(=O)O; Aib = CC(C)(N)C(=O)O
Reply with the value as a number alone.

These solved cases illustrate the format of a correct answer.
Binder: Y[Aib]QGTFTSDYSK([AEEA-AEEA-γGlu-C18″])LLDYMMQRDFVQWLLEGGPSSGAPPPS-NH2 [Peptide No. 5-3D]
Ratio vs. GLP-1R: 880
--
Binder: Y[Aib]QGTFTSDYSKYLDYK([AEEA-AEEA-γGlu-C18″])MARDFVQWLIEGGPSSGAPPPS-NH2 [Peptide No. 5-1F]
Ratio vs. GLP-1R: 3
--
Binder: Y[Aib]QGTFTSDK([AEEA-AEEA-γGlu-C18″])SKYLDYMMARDFVQWLIEGGPSSGAPPPS-NH2 [Peptide No. 5-1E]
Ratio vs. GLP-1R: 1
--
Binder: Y[Aib]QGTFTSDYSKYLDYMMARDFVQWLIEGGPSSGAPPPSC-NH2 (not fully specified (residue 40)) [Peptide No. 5-1A]
Ratio vs. GLP-1R: 1

Now examine the next entry.
If you can, please state the reported Ratio vs. GLP-1R value of Y[Aib]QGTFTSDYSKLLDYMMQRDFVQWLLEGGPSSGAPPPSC-NH2 [Peptide No. 5-3] . 1120
